# Test system: RXF 393
# method_notes: NCI tumour cell line growth inhibition, 48 h
Calls of active or inactive are those of the source. No stated cut-off is given here; in the data, active = GI50 up to about 1.1 µM and inactive = higher.
Classes used: active, inactive

compound: COc1ccc(/C(Cl)=C(\C=N/O)c2ccc(OC)c(OC)c2)cc1OC
cat: inactive

compound: COC[C@@H](/N=C/c1ccc([N+](=O)[O-])cc1)C(C)C
cat: inactive

compound: O=C(c1ccccc1)c1nc2c(Cl)ccc(Cl)c2cc1C(Br)Br
cat: inactive

compound: CC/C=C1\N=C(c2ccc(Cl)cc2)OC1=O
cat: inactive

compound: CCN(CC)CCCn1c(=O)c2cccnc2n2c3c(=O)n(C)c(=O)n(C)c3nc12
cat: inactive

compound: CC(C)OC(=O)C1=C2c3ncccc3C(=O)N2[C@@H](Cl)[C@@H](Cl)[C@@H]1Cl
cat: inactive

compound: CCOc1ccc2nc(NC(=O)C(=O)C(C(=O)c3ccccc3F)C3OC(=O)c4ccccc43)sc2c1 (configuration not stated)
cat: inactive

compound: COc1cc(Oc2c(O)c(C)c(OC)c(C(C)=O)c2O)c(C(C)=O)c(O)c1C
cat: inactive

compound: O=c1c(Cl)c(Cl)c(=O)c2sc3cc(Cl)ccc3[nH]c1=2
cat: inactive

compound: CC(C)(C)OC(=O)NC1CCC[C@H]1O (some centres not stated)
cat: inactive

compound: CO/N=C(\C)c1ccc(Nc2c3ccccc3nc3occc23)cc1
cat: active

compound: CC[C@@]1(O)C(=O)OCc2c1cc1n(c2=O)Cc2c-1nc1ccccc1c2/C=N/NC(=O)c1ccc(N)cc1
cat: active

compound: CCC1(c2ccc(N3C(=O)c4cc(OC)c(OC)cc4C3=O)cc2)CCC(=O)NC1=O (configuration not stated)
cat: inactive

compound: C=C(C)C12CC3CC(/C(=N/O)C(C1)/C3=N\O)[C@@]2(C)O (some centres not stated)
cat: inactive

compound: [O-][S+]1[C@H](c2ccccc2)c2c(-c3ccccc3)sc(-c3ccccc3)c2[C@@H]1c1ccccc1 (some centres not stated)
cat: inactive

compound: Cc1ccc(S(=O)(=O)N2CCC2c2ccccc2)cc1 (configuration not stated)
cat: inactive

compound: C[N+](C)(C)Cc1c(CC#N)[nH]c2ccccc12
cat: inactive

compound: COc1ccc2c3c1OC1c4[nH]c5ccccc5c4CC4(O)C(C2)N(C)CCC314 (configuration not stated)
cat: inactive

compound: Cc1ccc(SC2=C(N(C)C)C(=O)c3ccccc3C2=O)cc1
cat: inactive

compound: O=C1C=C(N2CCCC2)C=C(N2CCCC2)C1
cat: inactive

compound: CCCCn1c(-c2ccccc2)cs/c1=N\NC(=O)Cn1c(C)nc2ccccc21
cat: inactive

compound: C/C=C(\C)C(=O)OC1C2C(C)C(=O)OC2C(O)C(C)C2C=CC(=O)C21C (configuration not stated)
cat: inactive

compound: CC1CC2CC(=O)CC3(C1)C2CCCN3CCCO (configuration not stated)
cat: inactive

compound: CC(C)(C)OC(=O)NC(Cc1c[nH]cn1)C(=O)N1CCCC1C(N)=O (configuration not stated)
cat: inactive

compound: CCOC(=O)C1=C(O)C(=O)c2ccoc2C1=O
cat: inactive

compound: CC(C)(C)c1cc(C#N)c2c(c1)C(=O)OC2(c1ccccc1)c1ccccc1C#N (configuration not stated)
cat: inactive

compound: Cc1c(C(=O)N2CCN(c3ccc([N+](=O)[O-])cc3)CC2)[n+]([O-])c2cc(Cl)c(Cl)cc2[n+]1[O-]
cat: inactive

compound: COc1ccc(CC(=O)NCCc2ccc(OC)c(OC)c2)cc1Br
cat: inactive

compound: O=c1c2ccccc2nc(N/N=C/c2ccccc2O)n1-c1ccccc1
cat: inactive

compound: N=C1CCCC1C(=S)SCCC(N)=O (configuration not stated)
cat: inactive

compound: CN(C)/C=N/c1cc(=O)n(C)c(=O)n1C
cat: inactive

compound: O=C(OCC(Cl)(Cl)Cl)N1CC[C@@H](C2CCCCC2)C1
cat: inactive

compound: CC1=C2CC[C@@]3(C)C(=CCC3O)C2(C)CCC1=O (some centres not stated)
cat: inactive

compound: O=c1c2cccnc2oc2c(Cl)cc(-c3nnn[nH]3)cc12
cat: inactive

compound: CCOC(=O)c1ccc(N[C@@H]2c3cc4c(cc3C(C3=CC(=O)C(=O)C(OC)=C3)[C@H]3C(=O)OCC32)OCO4)cc1 (some centres not stated)
cat: inactive

compound: CC(C)(C)OC(=O)NC1CCC(C(C)(C)C)CC1 (configuration not stated)
cat: inactive

compound: Cc1cc2nn(C3CCCO3)nc2cc1C (configuration not stated)
cat: inactive
